- assayed target: T1, CRBN, Q96SW2;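 further: pooled lentiviral library of zinc finger degron-EGFP fusions in mCherry-positive Jurkat cells, FACS-sorted after compound exposure, with degron abundance counted by next-generation sequencing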
- T1 chain: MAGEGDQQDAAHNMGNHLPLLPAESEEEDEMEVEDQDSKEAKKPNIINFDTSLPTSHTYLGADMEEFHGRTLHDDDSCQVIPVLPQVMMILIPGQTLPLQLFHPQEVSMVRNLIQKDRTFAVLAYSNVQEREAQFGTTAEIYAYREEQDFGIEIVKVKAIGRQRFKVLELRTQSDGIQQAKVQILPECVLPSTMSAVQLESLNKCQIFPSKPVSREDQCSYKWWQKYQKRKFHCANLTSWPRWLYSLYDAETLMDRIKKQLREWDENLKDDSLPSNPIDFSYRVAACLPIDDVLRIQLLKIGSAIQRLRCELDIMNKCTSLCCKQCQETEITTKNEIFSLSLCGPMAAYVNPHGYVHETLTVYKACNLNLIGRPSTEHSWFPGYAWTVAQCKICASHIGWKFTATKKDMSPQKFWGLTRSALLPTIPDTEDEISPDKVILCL
- assay remarks: log2 fold change of degron read counts, EGFP-low vs EGFP+ sorted cells (limma voom), compound-induced degradation; higher = more compound-induced degradation of the degron-EGFP fusion; degrons are variants of IKZF1/3 zinc finger 2; compound dose not given here
- assay conditions: Jurkat; 18 h; compound: compound 22 (5-morpholino-thalidomide)
In all, about 8,300 sequences were measured (“log2 fold change of degron read counts, EGFP-low vs EGFP+ sorted cells (limma voom), compound-induced degradation”: median about -1.1, highest 2% from about 3.2 on). What follows is part of a selection rich in the highest values, with near analogues and random picks from the rest.
Outcome: satisfied for log2 fold change of degron read counts of at least 2; not satisfied for anything lower.

INSERT INTO results (seq_text, category) VALUES
  ('FDCEICGRTFTQKGNLLRHIKL [46F_47D_49E_50I_52G_53R_54T_55F_67L_, Q9UKT9]', 'not satisfied'),
  ('LQCEICGFTCTQKGNLLRHIKL [46L_47Q_49E_50I_52G_53F_54T_55C_67L_, Q9UKT9]', 'satisfied'),
  ('LTCEICGFTCTQKGNLLRHIKL [46L_47T_49E_50I_52G_53F_54T_55C_67L_, Q9UKT9]', 'satisfied'),
  ('LYCEICGFTCTQKGNLLRHIKL [46L_47Y_49E_50I_52G_53F_54T_55C_67L_, Q9UKT9]', 'satisfied'),
  ('LDCEICGFTCTQKGNLLRHIKL [46L_47D_49E_50I_52G_53F_54T_55C_67L_, Q9UKT9]', 'not satisfied');

Does the reported log2 fold change of degron read counts for LACEICGFTCTQKGNLLRHIKL [46L_47A_49E_50I_52G_53F_54T_55C_67L_, Q9UKT9] fall at or above the 2 mark?
satisfied

Does LGCEICGFTCTQKGNLLRHIKL [46L_47G_49E_50I_52G_53F_54T_55C_67L_, Q9UKT9] have a reported log2 fold change of degron read counts of at least 2?
satisfied

All figures here come from the supplement of paper PMC12645437.
